Test: Solubility in PBS at pH 5, pH 6 and pH 7.4
Type: physicochemical
Conditions: PBS, 37 °C, pH 5, aqueous buffer, thermodynamic from solid
Attribute Measured: solubility at 4 h (mg/mL)
# value in mg/mL; strip the unit string

# compound CC(C)[C@H](N)C(=O)OCCOCn1cnc2c(=O)[nH]c(N)nc21 [Compound 4, valacyclovir, reference compound] ; its solubility at 4 h = 72.7

###

Test: Chemical
Assay type: physicochemical
Conditions: PBS, pH 7.4
Attribute Measured: half-life at 2 mM (h)
The answer is to be given in h; state only the numeric part.

Lab book: half-life at 2 mM of CC(C)[C@H](N)C(=O)OCCOCn1cnc2c(=O)[nH]c(N)nc21 [Compound 4, valacyclovir, reference compound] noted as 13.6

###

Assay: Stability
Type: in vitro ADME, Bovine
Conditions: bovine, bovine serum
Attribute Measured: half-life at 2 mM (h)
Quick note: give the figure in h, leave out the unit.

The molecule listed as CC(C)[C@H](N)C(=O)OCCOCn1cnc2c(=O)[nH]c(N)nc21 [Compound 4, valacyclovir, reference compound] shows half-life at 2 mM equal to 6.2

###

Assay: Solubility in PBS at pH 5, pH 6 and pH 7.4
Type: physicochemical
Settings: PBS, 37 °C, pH 6, aqueous buffer, thermodynamic from solid
Attribute Measured: solubility at 4 h
Answer shape: numeric part, then the unit.

# solubility at 4 h of CC(C)[C@H](N)C(=O)OCCOCn1cnc2c(=O)[nH]c(N)nc21 [Compound 4, valacyclovir, reference compound] = 13.4 mg/mL

###

Test: Solubility in PBS at pH 5, pH 6 and pH 7.4
Format: physicochemical
Conditions: PBS, 37 °C, pH 7.4, aqueous buffer, thermodynamic from solid
Attribute Measured: solubility at 4 h (µg/mL)
Provide the reading as a plain figure in µg/mL.

Lab note: CC(C)[C@H](N)C(=O)OCCOCn1cnc2c(=O)[nH]c(N)nc21 [Compound 4, valacyclovir, reference compound] gave solubility at 4 h of 1910

This collection of values is drawn from paper PMC3432695.
